- Assay explanation: Inhibition of GST tagged VIM-1 (unknown origin) expressed in Escherichia coli BL21 Star (DE3) competent cells using CCF2-FA as substrate incubated for 2 hrs by fluorescence based analysis
Measured endpoint: IC50

                             chemical_smiles  reported_result
 0  Nc1ccc(-c2ccc(C(F)(F)F)c(S(N)(=O)=O)c2-c2nn[nH]n2)cn1           1.3 nM
 1  NS(=O)(=O)c1c(C[C@H]2CC[C@H](N)CC2)ccc(-c2ccc(C3CNC3)cc2)c1-c1nn[nH]n1             1 nM
 2  Cc1ccc(-c2ccc(C3CCNCC3)cc2)c(-c2nn[nH]n2)c1S(N)(=O)=O            28 nM
 3  N=C(N)NCc1ccc(-c2ccc(C(F)(F)F)c(S(N)(=O)=O)c2-c2nn[nH]n2)cc1           0.4 nM
 4  Cc1ccc(-c2cccc(S(N)(=O)=O)c2-c2nnn[nH]2)cc1            57 nM
 5  Nc1nc2c(-c3ccc(C(F)(F)F)c(S(N)(=O)=O)c3-c3nn[nH]n3)cccc2s1           0.4 nM
 6  NCCCc1ccc(-c2cccc3sc(N)nc23)c(-c2nn[nH]n2)c1S(N)(=O)=O           1.8 nM
 7  Nc1nc2ccc(-c3ccc(C(F)(F)F)c(S(N)(=O)=O)c3-c3nn[nH]n3)cc2s1           0.3 nM
 8  NS(=O)(=O)c1c(C(F)(F)F)ccc(-c2ccc(NS(=O)(=O)C3CC3)cc2)c1-c1nn[nH]n1          0.08 nM
 9  N=C(N)N[C@H]1CC[C@H](c2ccc(C(F)(F)F)c(S(N)(=O)=O)c2-c2nn[nH]n2)CC1           0.7 nM
10  Nc1nc2c(-c3ccc(CC4CCNCC4)c(S(N)(=O)=O)c3-c3nn[nH]n3)cccc2s1           2.2 nM
11  NS(=O)(=O)c1c(CC2CNC2)ccc(-c2ccc(C3CCNCC3)cc2)c1-c1nn[nH]n1             7 nM
12  NS(=O)(=O)c1c(Cl)ccc(-c2ccc(C3CCNCC3)cc2)c1-c1nn[nH]n1             3 nM
13  NC1(c2ccc(-c3ccc(C(F)(F)F)c(S(N)(=O)=O)c3-c3nn[nH]n3)cc2)CCNCC1             3 nM
